# protocol: Quantitative High-Throughput drug screen in 47 multiple myeloma cell lines against the NCATS MIPE library collection: AMO1_DSMZ cell viability assay (AID 1918927; note: nearly all actives have a fitted effect of over 30% in size)
# study_conditions: AMO1 myeloma cells viability, CellTiter-Glo ATP luminescence, 48 h; series mostly up to 45.8 µM
# Description: PI: Beverly A. Mock Ph.D. Laboratory of Cancer Biology and Genetics, Center for Cancer Research, National Cancer Institute, National Institute of Health, Bethesda, Maryland […] 5; Detector; 425V; Luminescence; Viewlux PerkinElmer. […] 1. […] Briefly, the corresponding myeloma cell lines were screened in 1,536-well plates with 500 cells, 5-uL per well for inhibition of cell viability (assessed by measuring ATP levels with CellTiterGlo). […]
Results filed as inconclusive are left out. Calls of active or inactive are those of the source. Calls come from the whole dose curve; as a rule, active = well fitted cell-killing curve with a large enough effect; inconclusive = small, poorly fitted or top-dose-only effect, or effect the other way; inactive = no such curve, though single readings can be large or run the other way.
Allowed answers: active, inactive

Answered examples (5):
O=C(NCc1ccccc1)[C@H](Cc1ccccc1)NC(=O)[C@@H]1O[C@@H]1C(=O)NCCc1ccc(O)cc1 = active
COc1cccc2c1C(=O)c1c(O)c3c(c(O)c1C2=O)C[C@@](O)(C(C)=O)C[C@H]3O[C@H]1C[C@H](N)[C@H](O)[C@H](C)O1 = active
N#Cc1cc(NC(=O)Nc2nnc(-c3ccncc3)s2)ccc1-c1cn[nH]c1 = inactive
NC(=O)N1CCC(CC(=O)N2CCC([C@H]3c4ncc(Br)cc4CCc4cc(Cl)cc(Br)c43)CC2)CC1 = active
CCOC(=O)N1CCN([N+]([O-])=NOc2ccc([N+](=O)[O-])cc2[N+](=O)[O-])CC1 = active

Hello, I am checking results. What call was entered for `CCOc1cc2ncc(C#N)c(Nc3ccc(OCc4ccccn4)c(Cl)c3)c2cc1NC(=O)C=CCN(C)C` ? active

Where these numbers come from: PubChem BioAssay (NCATS)
